Values from PubChem BioAssay AID248

Below, each entry is listed alongside its reported T/C.
Tested on: L1210 leukemia ip in BDF1 mice, survival T/C
run description: NCI In Vivo Anticancer Drug Screen. Data for tumor model L1210 Leukemia (intraperitoneal) in B6D2F1 (BDF1) mice
condition: endpoint: mean survival time; dose: 100.0 mg/kg/injection; schedule: Q04DX003 (ip); vehicle: saline; higher = longer survival
Toxic doses and inconclusive results are not listed.

{"molecule": "CCOC(=O)C[N+]1(C)CCC(O)CC1 (configuration not stated)", "T/C": "98 % of control"}
{"molecule": "CCOC(=O)/C(Cc1ccc2c(c1)OCO2)=N\\O", "T/C": "96 % of control"}
{"molecule": "O=C1N2CCOC2=NC1(c1ccccc1)c1ccccc1", "T/C": "94 % of control"}
{"molecule": "O=c1ccn(CCC(CO)CO)c(=O)[nH]1", "T/C": "101 % of control"}
{"molecule": "NC(Cc1cc(Br)c(O)c(Br)c1)C(=O)O (configuration not stated)", "T/C": "103 % of control"}
{"molecule": "CC(O)CN1CCOCC1 (configuration not stated)", "T/C": "100 % of control"}
{"molecule": "O=c1oc2c(-c3ccccc3)cccc2c(O)c1-c1ccccc1", "T/C": "95 % of control"}
